Target: Kv1.5 (Homo sapiens)
Sequence (P22460 whole entry): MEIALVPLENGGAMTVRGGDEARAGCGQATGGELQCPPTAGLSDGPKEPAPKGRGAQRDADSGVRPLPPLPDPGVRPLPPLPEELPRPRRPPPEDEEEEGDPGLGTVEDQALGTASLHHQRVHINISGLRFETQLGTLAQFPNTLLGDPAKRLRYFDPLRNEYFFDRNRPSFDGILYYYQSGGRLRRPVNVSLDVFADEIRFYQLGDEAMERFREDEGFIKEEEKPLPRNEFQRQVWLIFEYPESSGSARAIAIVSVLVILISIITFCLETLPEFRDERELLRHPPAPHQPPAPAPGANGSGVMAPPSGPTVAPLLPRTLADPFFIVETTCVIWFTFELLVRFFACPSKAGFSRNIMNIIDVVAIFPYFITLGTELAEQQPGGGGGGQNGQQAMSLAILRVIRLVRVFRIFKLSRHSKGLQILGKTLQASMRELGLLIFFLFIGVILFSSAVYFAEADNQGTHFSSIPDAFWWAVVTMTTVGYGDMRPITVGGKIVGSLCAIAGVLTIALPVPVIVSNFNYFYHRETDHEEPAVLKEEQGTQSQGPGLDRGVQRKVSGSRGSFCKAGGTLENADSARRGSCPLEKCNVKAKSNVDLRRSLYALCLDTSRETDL
Test: Kv1.5 inhibition assay (IKur inhibitor assay per cited references)
Format: cell-based
Settings: read-out: Kv1.5 IC50
pIC50: −log10 of the molar value.
Param threshold (7) applies to pIC50; output true (1) when value >= threshold, false (0) when value < threshold.

[
  {
    "compound": "COc1ccc(S(=O)(=O)C2=C(C)Nc3cc(C)nn3C2c2ccc(Cl)cc2)cc1 (single isomer, unassigned) [Example 19 Isomer 1]",
    "cat": "true (1)"
  },
  {
    "compound": "CC1=C(S(=O)(=O)c2ccc(C(F)(F)F)cc2)C(c2ccc(Cl)c(Cl)c2)n2nc(C)cc2N1 (single isomer, unassigned) [Example 9 Isomer 1]",
    "cat": "false (0)"
  },
  {
    "compound": "CC1=C(S(=O)(=O)c2ccc(Cl)cc2)C(CC(C)C)n2nc(C(F)(F)F)cc2N1 (single isomer, unassigned) [Example 45 Isomer 1]",
    "cat": "false (0)"
  },
  {
    "compound": "CC1=C(S(=O)(=O)c2ccccc2)C(c2ccc(Cl)c(Cl)c2)n2nc(C)cc2N1 (single isomer, unassigned) [Example 3 Isomer 1]",
    "cat": "true (1)"
  },
  {
    "compound": "CC1=C(S(=O)(=O)c2ccc(Cl)cc2)C(c2ccc(Cl)c(Cl)c2)n2nc(C(F)(F)F)cc2N1 (single isomer, unassigned) [Example 4 Isomer 1]",
    "cat": "false (0)"
  },
  {
    "compound": "CC1=C(S(=O)(=O)c2ccccc2)C(c2ccc(Cl)c(Cl)c2)n2nc(C)cc2N1 (single isomer, unassigned) [Example 3 Isomer 2]",
    "cat": "false (0)"
  },
  {
    "compound": "COc1ccc(S(=O)(=O)C2=C(C)Nc3cc(C)nn3C2c2cccc(Cl)c2)cc1 (single isomer, unassigned) [Example 17 Isomer 1]",
    "cat": "false (0)"
  },
  {
    "compound": "COc1ccc(S(=O)(=O)C2=C(C)Nc3cc(C)nn3C2c2ccc(Cl)c(Cl)c2)cc1 (single isomer, unassigned) [Example 8 Isomer 2]",
    "cat": "false (0)"
  },
  {
    "compound": "CC1=C(S(=O)(=O)c2ccc(C)cc2)C(c2ccc(Cl)c(Cl)c2)n2nc(C)cc2N1 (single isomer, unassigned) [Example 5 Isomer 1]",
    "cat": "true (1)"
  },
  {
    "compound": "COc1ccc(S(=O)(=O)C2=C(C)Nc3cc(C)nn3C2c2ccc(Cl)c(Cl)c2)cc1 (single isomer, unassigned) [Example 8 Isomer 1]",
    "cat": "true (1)"
  },
  {
    "compound": "CC1=C(S(=O)(=O)C2CCCCC2)C(c2ccc(Cl)cc2)n2nc(C(F)(F)F)cc2N1 (single isomer, unassigned) [Example 29 Isomer 1]",
    "cat": "false (0)"
  },
  {
    "compound": "CCCCS(=O)(=O)C1=C(C)Nc2cc(C(F)(F)F)nn2C1c1ccc(Cl)cc1 (single isomer, unassigned) [Example 30 Isomer 1]",
    "cat": "false (0)"
  },
  {
    "compound": "CC1=C(C(=O)N(C)S(=O)(=O)C2CC2)C(c2ccc(Cl)c(Cl)c2)n2nc(C(F)(F)F)cc2N1 (single isomer, unassigned) [Example 98 Isomer 2]",
    "cat": "false (0)"
  },
  {
    "compound": "CC1=C(S(=O)(=O)c2ccc(Cl)cc2)C(c2ccc(Cl)c(Cl)c2)n2nccc2N1 (single isomer, unassigned) [Example 2 Isomer 2]",
    "cat": "true (1)"
  },
  {
    "compound": "COc1ccc(S(=O)(=O)C2=C(C)Nc3cc(C)nn3C2c2ccc(C)c(F)c2)cc1 (single isomer, unassigned) [Example 24 Isomer 2]",
    "cat": "false (0)"
  }
]
